assay: Cyto-toxicity assay (MTT) in MT2 cells without virus; format: cell-based; settings: human; 1000 nM; MT2 cells, MTT; read-out: Cytotoxicity % viability 1000 nM
Documented viability at 1000 nM across a set of molecules
Show the value, then the unit it is measured in.

// solved cases for viability at 1000 nM follow
molecule [2H]C([2H])([2H])C(N1CCN(C(=O)[C@]23CC[C@@H](C(=C)C)[C@@H]2[C@H]2CC[C@@H]4[C@@]5(C)CC[C@H](OC(=O)CC(C)(C)C(=O)O)C(C)(C)[C@@H]5CC[C@@]4(C)[C@]2(C)CC3)CC1)C([2H])([2H])[2H] [Example 7] , viability at 1000 nM observed: 96%

Notebook: COC1CCN(C(=O)[C@]23CC[C@@H](C4(C)CC4)[C@@H]2[C@H]2CC[C@@H]4[C@@]5(C)CC[C@H](OC(=O)[C@H]6C[C@@H](C(=O)O)C6(C)C)C(C)(C)[C@@H]5CC[C@@]4(C)[C@]2(C)CC3)CC1 [Example 29] , viability at 1000 nM read as 77%

Okay, next one:
// COCCOC1CCN(C(=O)[C@]23CC[C@@H](C4(C)CC4)[C@@H]2[C@H]2CC[C@@H]4[C@@]5(C)CC[C@H](OC(=O)[C@H]6C[C@@H](C(=O)O)C6(C)C)C(C)(C)[C@@H]5CC[C@@]4(C)[C@]2(C)CC3)CC1 [Example 42] : viability at 1000 nM value = 84%

* * *

Catalogue of molecules with associated AUC(0-inf)
test: Single dose oral pharmacokinetic study in mice; format: in vivo; conditions: mouse, plasma; Oral PK @ 30 mg/ kg dose in mice (Table 6)

Reported AUC(0-inf) for [2H]C([2H])([2H])C(CC(=O)O[C@H]1CC[C@]2(C)[C@H]3CC[C@@H]4[C@H]5[C@H](C(=C)C)CC[C@]5(C(=O)N5CCN(CC)CC5)CC[C@@]4(C)[C@]3(C)CC[C@H]2C1(C)C)(C(=O)O)C([2H])([2H])[2H] was 122 µg·h/mL

The molecule listed as CC(C)(CC(=O)O[C@H]1CC[C@]2(C)[C@H]3CC[C@@H]4[C@H]5[C@H](C6(C)CC6)CC[C@]5(C(=O)N5CCC(C#N)(c6ccccc6)CC5)CC[C@@]4(C)[C@]3(C)CC[C@H]2C1(C)C)C(=O)O shows AUC(0-inf) equal to 185 µg·h/mL

* * *

assay: Single dose oral pharmacokinetic study in mice; type: in vivo; conditions: mouse, plasma; Oral PK @ 30 mg/ kg dose in mice (Table 6); read-out: AUCt
Use 1.0 when the recorded AUC(0-t) is no lower than 200 µg·h/mL; use 0.0 when it is lower.

See these solved cases before continuing.
Ask: Is reported AUC(0-t) greater than or equal to 200 µg·h/mL here: [2H]C([2H])([2H])C(CC(=O)O[C@H]1CC[C@]2(C)[C@H]3CC[C@@H]4[C@H]5[C@H](C(=C)C)CC[C@]5(C(=O)N5CCN(CC)CC5)CC[C@@]4(C)[C@]3(C)CC[C@H]2C1(C)C)(C(=O)O)C([2H])([2H])[2H]
Result: 0.0

Ask: Does the reported AUC(0-t) for CC1([C@@H]2CC[C@]3(C(=O)N4CCN(CCN5CCOCC5)CC4)CC[C@]4(C)[C@H](CC[C@@H]5[C@@]6(C)CC[C@H](OC(=O)[C@H]7C[C@@H](C(=O)O)C7(C)C)C(C)(C)[C@@H]6CC[C@]54C)[C@@H]23)CC1 fall at or above the 200 µg·h/mL mark?
Result: 1.0

***
Ask: Does [2H]C([2H])([2H])C(CC(=O)O[C@H]1CC[C@]2(C)[C@H]3CC[C@@H]4[C@H]5[C@H](C(=C)C)CC[C@]5(C(=O)N[C@@H]5C[C@H](C(=O)N6CCCCC6)C5(C)C)CC[C@@]4(C)[C@]3(C)CC[C@H]2C1(C)C)(C(=O)O)C([2H])([2H])[2H] have a reported AUC(0-t) of at least 200 µg·h/mL?
Result: 0.0

Ask: Say whether COCCOC1CCN(C(=O)[C@]23CC[C@@H](C4(C)CC4)[C@@H]2[C@H]2CC[C@@H]4[C@@]5(C)CC[C@H](OC(=O)CC(C)(C)C(=O)O)C(C)(C)[C@@H]5CC[C@@]4(C)[C@]2(C)CC3)CC1 shows AUC(0-t) of 200 µg·h/mL or more.
Result: 1.0

Ask: Confirm if AUC(0-t) reported for the compound CCN1CCN(C(=O)[C@]23CC[C@@H](C4(C)CC4)[C@@H]2[C@H]2CC[C@@H]4[C@@]5(C)CC[C@H](OC(=O)CC(C)(C)CC(=O)O)C(C)(C)[C@@H]5CC[C@@]4(C)[C@]2(C)CC3)CC1 is 200 µg·h/mL or above.
Result: 0.0

Ask: Could you please find out whether COCCOC1CCN(C(=O)[C@]23CC[C@@H](C4(C)CC4)[C@@H]2[C@H]2CC[C@@H]4[C@@]5(C)CC[C@H](OC(=O)[C@H]6C[C@@H](C(=O)O)C6(C)C)C(C)(C)[C@@H]5CC[C@@]4(C)[C@]2(C)CC3)CC1 has AUC(0-t) that meets 200 µg·h/mL or exceeds it?
Result: 1.0

Ask: Is it the case that COCCOCCN1CCN(C(=O)[C@]23CC[C@@H](C4(C)CC4)[C@@H]2[C@H]2CC[C@@H]4[C@@]5(C)CC[C@H](OC(=O)[C@H]6C[C@@H](C(=O)O)C6(C)C)C(C)(C)[C@@H]5CC[C@@]4(C)[C@]2(C)CC3)CC1 has AUC(0-t) reaching or exceeding 200 µg·h/mL?
Result: 0.0

Ask: Can COCCOCCN1CCN(C(=O)[C@]23CC[C@@H](C4(C)CC4)[C@@H]2[C@H]2CC[C@@H]4[C@@]5(C)CC[C@H](OC(=O)CC(C)(C)C(=O)O)C(C)(C)[C@@H]5CC[C@@]4(C)[C@]2(C)CC3)CC1 be said to have AUC(0-t) at or above 200 µg·h/mL?
Result: 0.0

* * *

Here the recorded inhibition at 0.1 µM is given for each entry.
tested on: HIV-1 strain 92HT599; assay: Antiviral activity: p24 estimation in MT2 cells infected with HIV-1 strain 92HT599; assay type: cell-based; conditions: Human immunodeficiency virus 1; 100 nM; MT2 cells, HIV-1 92HT599, ~96 hours, p24; read-out: Antiviral activity % inhibition 100 nM
Write the figure, then the unit, nothing else.

Example entries begin here.
Summary for this molecule, CC1([C@@H]2CC[C@]3(C(=O)N[C@@H]4C[C@H](C(=O)N5CCCCC5)C4(C)C)CC[C@]4(C)[C@H](CC[C@@H]5[C@@]6(C)CC[C@H](OC(=O)[C@H]7C[C@@H](C(=O)O)C7(C)C)C(C)(C)[C@@H]6CC[C@]54C)[C@@H]23)CC1 : inhibition at 0.1 µM is 100%

Consider C=C(C)[C@@H]1CC[C@]2(C(=O)O)CC[C@]3(C)[C@H](CC[C@@H]4[C@@]5(C)CC[C@H](OC(=O)[C@H]6[C@@H](CC(=O)O)C6(C)C)C(C)(C)[C@@H]5CC[C@]43C)[C@@H]12 . Its measured inhibition at 0.1 µM is 95%

Further cases:
inhibition at 0.1 µM for CC(C)(CC(=O)O[C@H]1CC[C@]2(C)[C@H]3CC[C@@H]4[C@H]5[C@H](C6(C)CC6)CC[C@]5(C(=O)N5CCC(C(=O)NCCN6CCOCC6)CC5)CC[C@@]4(C)[C@]3(C)CC[C@H]2C1(C)C)C(=O)O is 99%

Quick note, inhibition at 0.1 µM for [2H]C([2H])([2H])C(CC(=O)O[C@H]1CC[C@]2(C)[C@H]3CC[C@@H]4[C@H]5[C@H](C6(C)CC6)CC[C@]5(C(=O)N[C@@H]5C[C@H](C(=O)N6CCCCC6)C5(C)C)CC[C@@]4(C)[C@]3(C)CC[C@H]2C1(C)C)(C(=O)O)C([2H])([2H])[2H] landed at 100%

* * *

experiment: Single dose oral pharmacokinetic study in mice; assay type: in vivo; settings: mouse, plasma; Oral PK @ 30 mg/ kg dose in mice (Table 6)
# AUC(0-inf) values compiled below
Only the number, expressed in µg·h/mL, is required.

Lookup result for COCCOC1CCN(C(=O)[C@]23CC[C@@H](C4(C)CC4)[C@@H]2[C@H]2CC[C@@H]4[C@@]5(C)CC[C@H](OC(=O)CC(C)(C)C(=O)O)C(C)(C)[C@@H]5CC[C@@]4(C)[C@]2(C)CC3)CC1 ; measured AUC(0-inf): 240

AUC(0-inf) recorded for this molecule, CC1([C@@H]2CC[C@]3(C(=O)N4CCC(C(=O)NCCN5CCOCC5)CC4)CC[C@]4(C)[C@H](CC[C@@H]5[C@@]6(C)CC[C@H](OC(=O)[C@H]7C[C@@H](C(=O)O)C7(C)C)C(C)(C)[C@@H]6CC[C@]54C)[C@@H]23)CC1 , is 171

Next:
Query COCCOCCN1CCN(C(=O)[C@]23CC[C@@H](C4(C)CC4)[C@@H]2[C@H]2CC[C@@H]4[C@@]5(C)CC[C@H](OC(=O)[C@H]6C[C@@H](C(=O)O)C6(C)C)C(C)(C)[C@@H]5CC[C@@]4(C)[C@]2(C)CC3)CC1 yields AUC(0-inf) of 119

Measured AUC(0-inf), CCN1CCN(C(=O)[C@]23CC[C@@H](C4(C)CC4)[C@@H]2[C@H]2CC[C@@H]4[C@@]5(C)CC[C@H](OC(=O)CC(C)(C)CC(=O)O)C(C)(C)[C@@H]5CC[C@@]4(C)[C@]2(C)CC3)CC1 : 151

Briefly, AUC(0-inf) measured for C=C(C)[C@@H]1CC[C@]2(C(=O)N[C@@H]3C[C@H](c4nnc(C)o4)C3(C)C)CC[C@]3(C)[C@H](CC[C@@H]4[C@@]5(C)CC[C@H](OC(=O)[C@H]6C[C@@H](C(=O)O)C6(C)C)C(C)(C)[C@@H]5CC[C@]43C)[C@@H]12 : 185

// AUC(0-inf) value for COCCOCCN1CCN(C(=O)[C@]23CC[C@@H](C4(C)CC4)[C@@H]2[C@H]2CC[C@@H]4[C@@]5(C)CC[C@H](OC(=O)CC(C)(C)C(=O)O)C(C)(C)[C@@H]5CC[C@@]4(C)[C@]2(C)CC3)CC1 : 119

Entry CC(C)(CC(=O)O[C@H]1CC[C@]2(C)[C@H]3CC[C@@H]4[C@H]5[C@H](C6(C)CC6)CC[C@]5(C(=O)N5CCOCC5)CC[C@@]4(C)[C@]3(C)CC[C@H]2C1(C)C)C(=O)O ; AUC(0-inf) = 106

The reported value for [2H]C([2H])([2H])C(CC(=O)O[C@H]1CC[C@]2(C)[C@H]3CC[C@@H]4[C@H]5[C@H](C6(C)CC6)CC[C@]5(C(=O)N[C@@H]5C[C@H](C(=O)N6CCCCC6)C5(C)C)CC[C@@]4(C)[C@]3(C)CC[C@H]2C1(C)C)(C(=O)O)C([2H])([2H])[2H] in terms of AUC(0-inf) is 79
